tested on: HCV genotype 1a subgenomic replicon; assay: HCV replicon assay, genotype 1a (luciferase); assay type: cell-based; details: Hepatitis C virus; genotype 1a replicon stable cell line; luciferase activity measured 48 hours later; 10 point dose response; read-out: 1A pEC50 (converted)
# EC50 values compiled below
PROPERTY LABEL: EC50 (nM)

[[record]]
compound = "CC=C1C[C@@H](c2ncc(-c3ccc(-c4ccc(-c5cnc([C@@H]6CCCN6C(=O)C(NC(=O)OC)C(C)C)[nH]5)cc4)cc3)[nH]2)N(C(=O)C(NC(=O)OC)C(C)C)C1 (some centres unmarked)"
measured = 0.0158

[[record]]
compound = "CCC1=C[C@@H](c2ncc(-c3ccc(-c4ccc(-c5cnc([C@@H]6CCCN6C(=O)C(NC(=O)OC)C(C)C)[nH]5)cc4)cc3)[nH]2)N(C(=O)[C@H](NC(=O)OC)C(C)C)C1 (some centres unmarked)"
measured = 0.0316

[[record]]
compound = "CN(C)[C@@H](C(=O)N1CCC[C@H]1c1nc(-c2ccc(-c3ccc(-c4c[nH]c([C@@H]5COC6(CCOCC6)N5C(=O)OCc5ccccc5)n4)cc3)cc2)c[nH]1)c1ccccc1"
measured = 1.58

[[record]]
compound = "COC(=O)N[C@H](C(=O)N1CC(C2CC2)=C[C@H]1c1ncc(-c2ccc(-c3ccc(-c4cnc([C@@H]5CCCN5C(=O)[C@@H](NC(=O)OC)C(C)C)[nH]4)cc3)cc2)[nH]1)C(C)C"
measured = 0.0126

[[record]]
compound = "COC(=O)N[C@H](C(=O)N1CCC[C@H]1c1ncc(-c2ccc(-c3ccc(-c4cnc([C@@H]5C=C(C)CN5C(=O)[C@H](NC(=O)OC)C(C)C)[nH]4)cc3)cc2)[nH]1)C(C)C"
measured = 0.0158

